test system: PfAP2-LT AP2 domain (GST-tagged); assay: gcPBM binding intensity (ln(normalized median fluorescence intensity)); higher = stronger DNA binding
In all, about 25,000 sequences were measured (“ln(normalized median fluorescence intensity)”: median about 8.9, highest 2% from about 10 on). The list comes from a sample in which the highest values are over-represented; it also holds close analogues and randomly drawn sequences.
Below, each entry is listed alongside its reported gcPBM binding intensity (ln).

{"columns": ["SEQUENCE_TEXT", "TESTED_SYSTEM", "RESULT_TYPE", "VAL"],
 "data": [
  ["TATAGATGTGGTTTATGTACATACTATAAAAAATCA [XGTACX_site1400]", "PfAP2-LT AP2 domain (GST-tagged)", "gcPBM binding intensity (ln)", 8.7]
]}

Please look at this sequence and report its gcPBM binding intensity (ln): AACACAAGAACAGAACGTACACACACATATATATAT [XGTACX_site7347] 9.84

For the sequence TAAAAAAAAACATATACACACAAAAACGTACACATA [CACACA_site1354] , give its measured gcPBM binding intensity (ln) value. 9.31

Read the entry AAAAAATATTGAAGTACACACATTATAAACTTTTTT [CACACA_site5029] and write its reported gcPBM binding intensity (ln). 8.86

----------
Catalogue of sequences with associated gcPBM binding intensity (ln)
tested on: PfAP2-LT AP2 domain (GST-tagged); experiment: gcPBM binding intensity (ln(normalized median fluorescence intensity)); higher = stronger DNA binding
The full ranking holds about 25,000 sequences; the median of “ln(normalized median fluorescence intensity)” is about 8.9, and the highest 2% start at about 10. The full list was thinned out, with the highest values kept by preference.
Give only the figure.

The following sequences have reported results that may help.
{"columns": ["SEQUENCE_TEXT", "TESTED_SYSTEM", "gcPBM binding intensity (ln)"],
 "data": [
  ["AAAAAAAAAAAAAATACACACACACCGATATATATA [CACACA_site8142]", "PfAP2-LT AP2 domain (GST-tagged)", 9.78],
  ["CGCACACGCAGACACACACACACATATAAATAAATA [CACACA_site7101]", "PfAP2-LT AP2 domain (GST-tagged)", 9.74]
]}

With those in mind, consider the next sequence.
Respond only with gcPBM binding intensity (ln) recorded for TAAAAAAAAAAAAATACACACACACCGATATATATA [CACACA_site8498] 9.76

----------
test system: PfAP2-LT AP2 domain (GST-tagged); assay: gcPBM binding intensity (ln(normalized median fluorescence intensity)); higher = stronger DNA binding
In all, about 25,000 sequences were measured (“ln(normalized median fluorescence intensity)”: median about 8.9, highest 2% from about 10 on). For the sample, the highest values were picked, then their nearest neighbours and some sequences at random.
We begin with a simple list: items and their reported gcPBM binding intensity (ln).
Keep it simple and answer with nothing but the number.

{"columns": ["SEQUENCE_TEXT", "TESTED_SYSTEM", "gcPBM binding intensity (ln)"],
 "data": [
  ["AGTAAAAGAAAGCACACACACATGTATTTATGTATG [CACACA_site5998]", "PfAP2-LT AP2 domain (GST-tagged)", 9.71]
]}

Using known records, supply gcPBM binding intensity (ln) for CACAAACAGACAAACACACACACACGGACATACATA [CACACA_site6350] 10.1

Give the reported gcPBM binding intensity (ln) for this sequence. AATAAATTGAAACACACACACACATATATATATATA [CACACA_site848] 10.2

Provenance of the data: the supplement of paper PMC11417369
